From: PubChem BioAssay AID1986

- experiment.summary: inhibitors of HIV fusion peptide binding, primary screen, biochemical, uHTS, fluorescence dequenching (AID 1986)
- condition.notes: cell-free peptide binding, 30 min, at 20 µM, active compounds read high
About 890 (0.31%) of roughly 290,000 compounds were called active. The entries come from a sample that favours actives as a whole.
Entries and their inhibition
Kindly answer with a numeric value in %, unit omitted.

See these solved cases before continuing.
compound: O=C(Nc1ccc(F)cc1F)C1CCN(C(=O)c2ccc(Br)cc2)CC1
experimental.readout: inhibition
unit.spec: %
result: 1.2
//
compound: O=C(COC(=O)c1cc[n+]([O-])cc1)Nc1ccc(SC(F)F)cc1
experimental.readout: inhibition
unit.spec: %
result: 2.4
//
compound: O=C(N=c1ccn(-c2nc3ccccc3nc2NS(=O)(=O)c2ccc(Cl)cc2)cc1)c1cccs1
experimental.readout: inhibition
unit.spec: %
result: 19.3
//
compound: Oc1ccc2ccccc2c1C=Nc1ccccc1Br
experimental.readout: inhibition
unit.spec: %
result: 0.3
//
compound: Clc1ccc2nc3c4ccccc4cnn3c2c1
experimental.readout: inhibition
unit.spec: %
result: 0
//
compound: N/C(=N\OC(=O)COc1ccc(Cl)cc1Cl)c1cccnc1
experimental.readout: inhibition
unit.spec: %
result: 1.4

stdin: For the compound Cc1cc(-c2ccccc2)nc(SCc2ccc(C(=O)O)o2)n1 , report inhibition.
stdout: 1.6

stdin: Give recorded inhibition. O=C(N=c1ccn(-c2nc3ccccc3nc2NS(=O)(=O)c2ccc(Cl)cc2)cc1)c1ccccc1Cl
stdout: 102

---

- experiment.summary: inhibitors of HIV fusion peptide binding, primary screen, biochemical, uHTS, fluorescence dequenching (AID 1986)
- condition.notes: cell-free peptide binding, 30 min, at 20 µM, active compounds read high
The campaign covered roughly 290,000 compounds. About 890 (0.31%) were called active. The sample as a whole holds a higher share of actives than the screen did.
experimental.readout: inhibition (%)
Answer with a number only, understood to be in %.

stdin: Provide one value: measured inhibition of CSc1ccc(S(=O)(=O)N2CCC(C(=O)NCC3CCCO3)CC2)cc1 (stereo unspecified)
stdout: -1.2

---

- experiment.summary: inhibitors of HIV fusion peptide binding, primary screen, biochemical, uHTS, fluorescence dequenching (AID 1986)
- condition.notes: cell-free peptide binding, 30 min, at 20 µM, active compounds read high
The whole screen tested about 290,000 compounds, of which about 890 (0.31%) were called active. This excerpt belongs to a sample that is enriched for actives.
experimental.readout: inhibition (%)
Numeric only. Scale: %

A selection of reference data follows.
compound: COc1ccc(NC(=O)CSc2ccc3c4c(cccc24)C(=O)c2ccccc2-3)cc1
result: 77

compound: Cc1ccc(C)c(N2C(=N)S/C(=C\c3ccc(-c4ccccc4C(=O)O)o3)C2=O)c1
result: 52.1

compound: COc1cc2[nH]c(=S)nc(NCCCOC(C)C)c2cc1OC
result: -2.4

compound: Nc1c(C(=O)OCC2CCCO2)c2nc3ccccc3nc2n1-c1ccc2c(c1)OCCO2 (stereo not given)
result: 0.3

compound: Cc1ccccc1SCC(=O)Nc1cccc(C#N)c1
result: 8.4

stdin: Respond only with inhibition recorded for CC(C)(C)N/N=C/c1c(O)n(-c2ccc(Cl)cn2)c(=O)c2ccccc12
stdout: 4

stdin: Output measured inhibition for this item: Cc1ccc(-c2nc(C=Nc3ccccc3)c(O)o2)cc1
stdout: -1.7

stdin: Read the entry Cc1c(Cc2ccccc2)sc(NC(=O)/C=C/c2cccc3ccccc23)c1C(N)=O and write its reported inhibition.
stdout: 3.6

stdin: Identify inhibition associated with the compound Cc1cc(-n2c(C)cc(C(=O)CSc3ccc4c(c3)OCCO4)c2C)no1
stdout: 2.6

stdin: Look up and state reported inhibition for Cc1ccc2c(CN3C(=O)NC(C)(c4ccc5c(c4)OCO5)C3=O)cc(=O)oc2c1 (stereo not given)
stdout: 3.8

stdin: Tell me its inhibition given Cc1ccc2c(c1)N(CCC(=O)NCCCOC(C)C)C(=O)C(C)O2 (stereo not given) as the entry.
stdout: -1.1

stdin: Look up and report measured inhibition for this entry: Oc1oc(-c2ccccc2)nc1C=Nc1ccccc1
stdout: -1.4

stdin: Entry CCOC(=O)C(=Cc1ccc(-c2ccsc2C(=O)OC)o1)C(=O)OCC needs its inhibition filled in; supply it.
stdout: 2.2

stdin: Respond only with inhibition recorded for CN(C)c1ccc(N=Cc2nc(-c3ccccc3)oc2O)cc1
stdout: 84.5

stdin: For C=CCn1c(CCC(O)COCCC)n[nH]c1=S (stereo not given) , write its inhibition.
stdout: -0.8
